This listing pairs sequences with measured binding signal.
# System Name: MBP-FoxP1dN (Mus musculus, UniProt P58462 326-579)
# Sequence: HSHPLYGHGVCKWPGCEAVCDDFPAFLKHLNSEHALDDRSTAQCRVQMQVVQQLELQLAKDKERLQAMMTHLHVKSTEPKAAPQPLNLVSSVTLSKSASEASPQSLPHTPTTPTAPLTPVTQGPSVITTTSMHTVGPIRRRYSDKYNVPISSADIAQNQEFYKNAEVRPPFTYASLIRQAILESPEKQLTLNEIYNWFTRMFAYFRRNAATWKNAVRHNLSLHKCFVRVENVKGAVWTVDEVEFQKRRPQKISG
# Experiment Notes: PD-seq (MBP pull-down with sequencing); 20 mM Tris-HCl pH 7.5, 100 mM NaCl, 1.5 mM MgCl2, 0.4 uM protein, 0.1 uM dsDNA library, 30 min, room temperature, amylose pull-down; high values mean tight binding
# Recorded Conditions: protein: recombinant; tags: His6-MBP; chain copies: 2; dsDNA, one strand shown
Over roughly 16,000 sequences, “rpm ratio (pull-down/input)” has its median near 0.94; the highest 2% begin near 1.7. What follows is part of a selection rich in the highest values, with near analogues and random picks from the rest.

Example sequences with recorded binding signal:
• GATGATTGTTCTCCCAGCTGATGAATTATTTGATTCGAGTAAACAAATTTTCCTAATCTTTCTGTTCAAGCGCCATCTAC = 1.05 RPM ratio (pull-down/input)
• GATGATTGTTCTCCCAGCTGATGAATTATTGTGTTCGAGTAAACAAATTTTCCTAATCTTTCTGTTCAAGCGCCATCTAC = 2.1 RPM ratio (pull-down/input)
• GATGATTGTTCTCCCAGCTGATGAATTAATGTTTTCGAGTAAACAAATTTTCCTAATCTTTCTGTTCAAGCGCCATCTAC = 2.45 RPM ratio (pull-down/input)
• GATGATTGTTCTCCCAGCTGATGAATTCACGCTGTCGAGTAAACAAATTTTCCTAATCTTTCTGTTCAAGCGCCATCTAC = 0.895 RPM ratio (pull-down/input)

Look up and report measured binding signal for this entry: GATGATTGTTCTCCCAGCTGATGAATTTATGTTTTCGAGTAAACAAATTTTCCTAATCTTTCTGTTCAAGCGCCATCTAC
2.76 RPM ratio (pull-down/input)

Look up and report measured binding signal for this entry: GATGATTGTTCTCCCAGCTGATGAATTTAATGTTTCGAGTAAACAAATTTTCCTAATCTTTCTGTTCAAGCGCCATCTAC
1.15 RPM ratio (pull-down/input)

Look up and report measured binding signal for this entry: GATGATTGTTCTCCCAGCTGATGAATTATGATGGTCGAGTAAACAAATTTTCCTAATCTTTCTGTTCAAGCGCCATCTAC
1.1 RPM ratio (pull-down/input)
